Target: Estrogen receptor (Homo sapiens);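 also: potency for inhibiting coactivator peptide recruitment to the receptor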
Sequence (P03372 whole entry): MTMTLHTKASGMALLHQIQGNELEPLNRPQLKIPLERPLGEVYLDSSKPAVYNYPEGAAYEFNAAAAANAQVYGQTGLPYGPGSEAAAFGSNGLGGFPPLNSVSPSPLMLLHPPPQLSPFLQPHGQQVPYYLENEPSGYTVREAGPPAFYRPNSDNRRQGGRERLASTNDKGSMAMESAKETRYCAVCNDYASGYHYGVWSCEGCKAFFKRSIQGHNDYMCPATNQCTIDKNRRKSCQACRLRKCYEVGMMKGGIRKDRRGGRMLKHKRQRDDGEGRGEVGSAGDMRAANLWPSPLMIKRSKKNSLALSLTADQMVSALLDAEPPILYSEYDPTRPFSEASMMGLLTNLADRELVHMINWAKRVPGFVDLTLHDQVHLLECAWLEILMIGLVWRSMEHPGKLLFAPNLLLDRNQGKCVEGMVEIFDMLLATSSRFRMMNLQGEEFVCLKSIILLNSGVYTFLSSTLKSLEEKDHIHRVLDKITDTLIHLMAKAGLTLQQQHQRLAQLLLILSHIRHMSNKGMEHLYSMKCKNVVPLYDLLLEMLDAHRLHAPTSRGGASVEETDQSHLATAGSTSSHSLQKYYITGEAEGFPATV
Calls of active or inactive are those of the source.
assay_readout: IC50

# compound, assay_readout, result
records = [
    ("Cn1c(C(=O)Nc2ccc3c(c2)OCO3)cc2c(=O)n(C)c3ccccc3c21", "IC50", "22.6 µM (active)"),
    ("Cc1nn(Cc2ccc(C(=O)Nc3nc4c(C)cccc4s3)o2)c(C)c1Br", "IC50", "> 50 µM (not active)"),
]

Can you look up the measured IC50 of Cc1cccc(N2CSC3=C(C#N)C(c4ccc(C)o4)CC(=O)N3C2)c1 (stereo not given) for me? 3.55 µM (active)

Here is the next compound: COc1cc(C2C(C#N)=C(N)Oc3cc(C)oc(=O)c32)cc2c1OCO2 (stereo not given) 26.2 µM (active)

Here is the next compound: Oc1ccc(/C=N/c2ccc(N3CCOCC3)cc2)c(O)c1 30.4 µM (not active)

----------
Target sequence: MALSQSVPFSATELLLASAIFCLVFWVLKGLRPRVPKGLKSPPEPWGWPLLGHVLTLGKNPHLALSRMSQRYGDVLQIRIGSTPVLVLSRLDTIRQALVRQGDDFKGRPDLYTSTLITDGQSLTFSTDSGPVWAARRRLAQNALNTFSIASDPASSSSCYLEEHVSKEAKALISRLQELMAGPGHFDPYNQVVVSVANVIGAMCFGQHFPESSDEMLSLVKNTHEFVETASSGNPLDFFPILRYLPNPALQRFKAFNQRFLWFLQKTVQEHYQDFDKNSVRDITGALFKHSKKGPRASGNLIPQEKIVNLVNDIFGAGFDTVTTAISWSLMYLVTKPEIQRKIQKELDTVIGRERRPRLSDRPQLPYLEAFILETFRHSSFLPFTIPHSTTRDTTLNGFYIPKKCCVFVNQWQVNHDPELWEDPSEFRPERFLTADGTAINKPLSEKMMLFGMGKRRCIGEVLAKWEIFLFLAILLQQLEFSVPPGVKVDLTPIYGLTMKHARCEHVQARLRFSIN
Recorded AC50 for the following compounds

# example entries with known answers
# compound, result
records = [
    ("CN(C)c1ncc2nc(-c3ccc(F)cc3)c(=O)n(CCC#N)c2n1", "1.26 µM (inconclusive)"),
    ("O=C(c1cnc(N2CCN(c3ncccn3)CC2)c2ccccc12)N1CCN(c2ccccn2)CC1", "0.0251 µM (inconclusive)"),
    ("COc1ccc(C2C(C#N)=C(N)N(Nc3ccccc3)C3=C2C(=O)CC(C)(C)C3)cc1C (stereo not drawn)", "39.8 µM (inconclusive)"),
    ("O=C(NCCCN1CCCCCC1)[C@@H](c1ccccc1)C1CCCCC1", "31.6 µM (inconclusive)"),
    ("COc1ccc(C2=Nc3c(c(=O)n(C)c(=O)n3C)C(C(F)(F)F)(C(F)(F)F)N2)cc1", "11.2 µM (inconclusive)"),
]

Can you look up the measured AC50 of CCCC(=O)Nc1c2c(nn1-c1ccc(C)cc1C)CSC2 for me? 12.6 µM (inconclusive)

Here is the next compound: CCOc1ccc(N2CC(C(=O)NCc3cccc(C)c3)CC2=O)cc1 (stereo not drawn) 14.1 µM (inconclusive)

Here is the next compound: CCOC(=O)CC(=O)CSc1nc(-c2ccccc2)cc(-c2ccc(Cl)cc2)c1C#N 2.24 µM (inconclusive)
